Biological target: SIRT1 (Homo sapiens)
Sequence (Q96EB6 whole entry): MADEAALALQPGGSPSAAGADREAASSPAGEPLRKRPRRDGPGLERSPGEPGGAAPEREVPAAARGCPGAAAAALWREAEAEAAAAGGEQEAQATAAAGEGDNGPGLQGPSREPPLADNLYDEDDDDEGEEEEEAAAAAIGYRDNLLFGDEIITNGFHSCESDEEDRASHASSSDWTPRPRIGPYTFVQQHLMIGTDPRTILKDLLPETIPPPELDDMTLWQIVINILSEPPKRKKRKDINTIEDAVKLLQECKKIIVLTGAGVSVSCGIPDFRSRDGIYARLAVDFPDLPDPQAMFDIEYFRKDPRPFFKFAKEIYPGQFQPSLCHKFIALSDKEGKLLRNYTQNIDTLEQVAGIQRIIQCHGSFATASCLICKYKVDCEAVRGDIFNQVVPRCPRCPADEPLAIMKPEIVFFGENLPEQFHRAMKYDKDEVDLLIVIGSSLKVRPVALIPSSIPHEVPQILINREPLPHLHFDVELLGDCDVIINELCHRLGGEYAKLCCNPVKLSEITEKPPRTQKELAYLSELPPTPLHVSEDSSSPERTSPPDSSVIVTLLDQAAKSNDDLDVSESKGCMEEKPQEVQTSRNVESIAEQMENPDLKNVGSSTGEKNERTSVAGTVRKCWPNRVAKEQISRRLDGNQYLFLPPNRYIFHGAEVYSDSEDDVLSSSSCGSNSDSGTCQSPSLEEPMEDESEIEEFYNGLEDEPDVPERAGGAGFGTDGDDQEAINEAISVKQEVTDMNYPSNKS
Assay: Mass spectrometry based SIRT1 deacetylase activation assay (acetylated p53-derived peptide substrate)
Assay type: biochemical
Settings: 0.5 μM peptide substrate, 120 μM βNAD+, 10 nM SIRT1, 25 min at 25° C., read-out: EC1.5
From the text: A mass spectrometry based assay was used to identify modulators of SIRT1 activity. The mass spectrometry based assay utilizes a peptide having 20 amino acid residues as follows: Ac-EE-K(biotin)-GQSTSSHSK(Ac)NleSTEG-K(5TMR)-EE-NH2 (SEQ ID NO: 1) wherein K(Ac) is an acetylated lysine residue and Nle is a norleucine. The peptide is labeled with the fluorophore 5TMR (excitation 540 nm/emission 580 nm) at the C-terminus. The sequence of the peptide substrate is based on p53 with several modifications. […]
readout.type: EC1.5

Worked cases, EC1.5 given:
molecule=Cc1cnc(NC(=O)c2cccc3[nH]c(-c4ccccc4OCCN4CCOCC4)nc23)s1 test_value="1000 to 25000 nM"
molecule=O=C(Nc1ccccn1)c1cccc2[nH]c(-c3cc(Cl)ccc3OCCN3CCOCC3)nc12 test_value="1000 to 25000 nM"
molecule=O=C(Nc1ccccn1)c1cccc2[nH]c(-c3cccc4c3OC(F)(F)O4)nc12 test_value="< 1000 nM"
molecule=Cc1cc(NC(=O)c2cccc3[nH]c(-c4ccnn4-c4ccccc4)nc23)no1 test_value="1000 to 25000 nM"
molecule=O=C(Nc1ccccn1)c1cccc2[nH]c(-c3cc(N4CCOCC4)ccc3C(F)(F)F)nc12 test_value="< 1000 nM"
molecule="O=C(Nc1ccccn1)c1cccc2[nH]c(-c3ccc(OC4CCNC4)cc3)nc12 (stereo not drawn)" test_value="< 1000 nM"
molecule=O=C(NC1CCOCC1)c1cccc2[nH]c(-c3ccc(F)cc3C(F)(F)F)nc12 test_value="1000 to 25000 nM"
molecule=Cc1nc(-c2ccccc2)sc1-c1nc2c(C(=O)Nc3ccccn3)cccc2[nH]1 test_value="< 1000 nM"

Q: Any idea what EC1.5 was measured for O=C(Nc1nccs1)c1cccc2[nH]c(-c3ccccc3OCCN3CC[C@H](F)C3)nc12 ?
A: < 1000 nM

Q: Which EC1.5 value is on record for FC(F)(F)c1cccc(-c2nc3c(Nc4ccccn4)cccc3[nH]2)c1 ?
A: > 25000 nM
